Tested on: Plasmodium berghei
Assay: Screen against P. berghei liver stage (PbLuc), transformed with Luciferase, at 10uM
Assay type: functional, HepG2
Settings: tested at 10 uM
About 8,600 (12%) of roughly 69,000 compounds showed an effect of 50% or more. Only a selection was taken, and strong results are over-represented in it overall.
Would you kindly list INHIBITION for each of these compounds?
Expressed in %, but write only the number.

Plasmodium berghei INHIBITION of CC(C)c1ccc(CNC(C)c2ccc(S(=O)(=O)N(C)C)cc2)cc1 (stereo not drawn) is 52.3

The reported INHIBITION value, Plasmodium berghei, for OC1CCN(Cc2ccc(CNc3ccc(Cl)cn3)cc2)CC1 reads 54.3

Given the compound COCCCNC(=O)c1cc(OC)c2ccoc2c1 and test system Plasmodium berghei, the measured INHIBITION is -25.7
